# measurementTarget: Cannabinoid receptor 2 (Homo sapiens, UniProt P34972)
# Sequence (P34972 whole entry): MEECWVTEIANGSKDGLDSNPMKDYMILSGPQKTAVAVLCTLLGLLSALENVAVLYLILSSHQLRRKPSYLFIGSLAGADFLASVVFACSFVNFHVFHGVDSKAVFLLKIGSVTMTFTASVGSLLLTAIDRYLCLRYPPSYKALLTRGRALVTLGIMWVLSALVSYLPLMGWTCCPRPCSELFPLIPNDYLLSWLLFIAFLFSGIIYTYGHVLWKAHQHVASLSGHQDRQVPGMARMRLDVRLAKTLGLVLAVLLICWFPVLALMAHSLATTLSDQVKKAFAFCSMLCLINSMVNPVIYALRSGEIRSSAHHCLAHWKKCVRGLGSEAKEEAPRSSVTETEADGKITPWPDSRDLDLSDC
pKi: −log10 of the molar value.
Below is a list of entries, each paired with its recorded pKi value.
measurementLabel: pKi

>>> result("CCC(C)(O)NC(=O)CCC(=O)/C=C/c1ccc(OCc2ccccc2)cc1 (configuration not stated)")
"< 5.00"
>>> result("CCC(C)(O)NC(=O)CCC(=O)/C=C/c1ccc(C)cc1 (configuration not stated)")
"< 5.00"
